Reported growth inhibition values for the following compounds.
# assay: NCI Yeast Anticancer Drug Screen. Data for the rad50 strain (AID 155);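 also: 0% = growth of vehicle-only cultures of the same strain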
# setup-conditions: S. cerevisiae rad50 strain growth inhibition; at 50.0 µM (retest, dose inferred, filed as 5.0); hits give high values
The panel holds about 79,000 compounds, 15% with a hit somewhere; the sample as a whole holds those more often.
Numbers only here, please. The scale is %.

Previously resolved entries follow.
- compound: "CSC1=NNC(SC)=NN1"
  numeric-result: 41
- compound: "CC1(Cl)CC(O)C2(CC1Br)C1(C)OC1C1OC1(Br)C2(C)C (stereo not drawn)"
  numeric-result: 79

Now look at this entry.
CCCCN(CCCC)CCSc1ccc(Cl)cc1 has a reported growth inhibition of 18

---

# assay: NCI Yeast Anticancer Drug Screen. Data for the wt2 strain (AID 169);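 also: 0% = growth of vehicle-treated yeast cultures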
# setup-conditions: S. cerevisiae wt2 strain growth inhibition; at 3.7 µM; hits give high values
Compounds without any hit were thinned out: in the full panel of roughly 79,000, 15% have a hit.
observation-type: growth inhibition (%)
Field format: number, assumed %, no unit text.

Examples from the recorded data:
- compound: "Cn1c(N)nc(-c2ccc(Cl)cc2)c1SSc1c(-c2ccc(Cl)cc2)nc(N)n1C"
  growth inhibition / %: 1
- compound: "COc1ccc(C2c3cc4c(cc3OC(C)(O)C2C)OCO4)c(OC)c1 (centres undefined)"
  growth inhibition / %: 0

The compound listed as O=c1ssc2ncccc12 has a reported growth inhibition of -4

Query CNC(=O)OCc1c(COC(=O)NC)c(-c2ccc(-c3ccccc3)cc2)n(C)c1C yields growth inhibition of -29

OC1CSCCCSCCSCCCSC1 has a reported growth inhibition of -17

Documented growth inhibition of NC1=NS(=O)(=O)N=C(N)C1=Cc1ccc([N+](=O)[O-])o1 : -34

Reported growth inhibition for NNC(=O)CCc1ccc2ccc3ccccc3c2c1 was -1

For reference, reported growth inhibition for O=C(Nc1ccccc1)C(=O)C(C(=O)c1ccccc1)C(c1ccccc1)c1ccccc1 (centres undefined) stands at 2

The reported growth inhibition of the compound O=C(N=Nc1cc(Cl)ccc1Cl)NNc1cc(Cl)ccc1Cl was -3

---

# assay: NCI Yeast Anticancer Drug Screen. Data for the rad14 strain (AID 159);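 also: 0% = growth of vehicle-treated control cultures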
# setup-conditions: S. cerevisiae rad14 strain growth inhibition; at 33.0 µM; hits give high values
This is part of a sample that, as a whole, favours compounds with a hit. Of some 79,000 tested, about 15% had one in any assay.
observation-type: growth inhibition (%)
Express the result in % but write the number alone.

So for CCN(CC)C(C)(C)C(=O)/C=C/c1ccccc1 , the logged growth inhibition turned out to be 5

---

# assay: NCI Yeast Anticancer Drug Screen. Data for the rad52 strain (AID 147);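 also: 0% = growth of vehicle-treated control cultures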
# setup-conditions: S. cerevisiae rad52 mutant growth inhibition; at 3.7 µM
This is part of a sample that, as a whole, favours compounds with a hit. Of some 79,000 tested, about 15% had one in any assay. Activity calls are given as the source filed them. Cut-off read from the data, not from the text of the source: active = growth inhibition above about 70%; inactive = the rest.
Hi there, use one of these labels in your reply, thanks! active, inactive

Check the results log: what was the call for Cc1ccc(Nc2nc3c(=O)n(C)c(=O)n(C)c3nc2Nc2ccc(C)cc2)cc1 ?
inactive

Recorded test call requested for Cc1ccc(NC(=O)/C(Cl)=C(\Cl)C(=O)O)cc1C
inactive

Look up the recorded call for CCCC/C=C/C(CC)(C(=O)OCC)C(=O)OCC in this test.
inactive

What did the test return for O=C(c1cc(Br)ccc1O)c1cc(Br)ccc1O ?
active

Assay outcome for Cc1ccc(NN(NC(=O)OC(C)C)C(=O)OC(C)C)cc1 : what was it?
inactive

Which outcome did this test record for the molecule COc1ccc(-c2cn(-c3ccc(I)cc3)c3ncnc(N)c23)cc1 ?
inactive

Just curious, what result did C[S+](C)C1(c2ccccc2)C(=O)c2ccccc2C1=O get here?
inactive

Dear colleague, could you share the recorded outcome for NC(=S)N/N=C\c1nccc2ccccc12 when you have a moment?
inactive
